Thermolysin (Bacillus thermoproteolyticus) measurements of Ki, listed per entry.
Sequence (P00800 233-548 limits assumed): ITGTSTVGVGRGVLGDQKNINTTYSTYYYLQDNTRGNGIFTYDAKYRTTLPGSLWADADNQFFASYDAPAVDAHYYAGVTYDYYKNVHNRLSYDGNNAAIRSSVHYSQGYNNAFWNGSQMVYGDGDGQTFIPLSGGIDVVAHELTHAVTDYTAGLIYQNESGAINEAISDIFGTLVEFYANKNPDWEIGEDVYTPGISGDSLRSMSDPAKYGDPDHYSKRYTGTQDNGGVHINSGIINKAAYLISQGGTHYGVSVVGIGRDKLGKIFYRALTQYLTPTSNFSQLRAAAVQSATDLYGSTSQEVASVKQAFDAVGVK
Reply numerically in µM, unit not repeated.

{"compound": "COC(=O)C(Cc1ccccc1)C/[N+]([O-])=C/c1ccccc1 (centres undefined)", "readout number": 244}
{"compound": "NC(=O)C(Cc1ccccc1)/[N+]([O-])=C/c1ccccc1 (centres undefined)", "readout number": 774}
{"compound": "COC(=O)C(Cc1ccccc1)/[N+]([O-])=C/c1ccccc1 (centres undefined)", "readout number": 1910}

Here is another compound to look at.
[ask] // Input: O=C(O)CNC(=O)C(CC(=O)O)Cc1ccccc1 (centres undefined) . Output its Ki only.
[reply] 340
